Here, each record is paired with measured IC50 data.
- target_or_test_system: G12C-mutant human KRAS (amino acid residues 1-188) (Homo sapiens, UniProt P01116, G12C)
- Construct: G12D or G12C-mutant human KRAS (amino acid residues 1-188) with FLAG tag; made in house; host or cells: E. coli
- method_summary: KRAS Binding Disruption Assay (AlphaScreen; biotinylated KRpep-2d analogue or RAF1-RBD), G12C
- condition_description: geometric mean, read-out: KRAS GMean IC50 (uM) MUTATION: G12C

For orientation, consider the following solved cases.
Cc1cccc2[nH]nc(-c3ccc4c(N5C[C@H]6CC[C@@H](C5)N6)nc(OC[C@@H]5CCCN5C)nc4c3F)c12 [P-0712] :: 10 to 100 µM
Oc1cc(-c2ccc3c(N4CC5CCC(C4)N5)nc(CN[C@@H]4CCC[C@H]4O)nc3c2)c2ccccc2c1 [P-0672] :: 10 to 100 µM
CC1(NC(=O)N2[C@@H]3CC[C@H]2CN(c2nc(OCC45CCCN4CCC5)nc4cc(-c5cc(O)cc6ccccc56)ccc24)C3)CCNC1 (some centres unmarked) [P-0124] :: 0.0001 to 10 µM
NC(=O)N1[C@@H]2CC[C@H]1CN(c1nc(OCC34CCCN3CCC4)nc3c(F)c(-c4cc(O)cc5ccccc45)ccc13)C2 [P-0660] :: 0.0001 to 10 µM
CN1CCC[C@H]1COc1nc(N2C[C@H]3CC[C@@H](C2)N3C(=O)Cc2c[nH]cn2)c2ccc(-c3cc(O)cc4ccccc34)cc2n1 [P-0117] :: 0.0001 to 10 µM
CN1CCC[C@H]1COc1nc(N2C[C@H]3CC[C@@H](C2)N3C(=O)Cc2cnccn2)c2ccc(-c3cc(O)cc4ccccc34)cc2n1 [P-0121] :: 10 to 100 µM

CC1(O)CN(c2nc(N3C[C@H]4CC[C@@H](C3)N4)c3ccc(-c4cc(O)cc5ccccc45)c(F)c3n2)C1 [P-0792] has a reported IC50 of 10 to 100 µM

Notebook: NCC(=O)N1[C@@H]2CC[C@H]1CN(c1nc(OCC34CCCN3CCC4)nc3cc(-c4cc(O)cc5ccccc45)ccc13)C2 [P-0007] , IC50 read as 0.0001 to 10 µM

Lab note: measured IC50 of Oc1cc(-c2ccc3c(N4C[C@H]5CC[C@@H](C4)N5)nc(N4CC(N5CCOCC5)C4)nc3c2F)c2ccccc2c1 [P-0703] was 10 to 100 µM

compound CN1CCC[C@H]1COc1nc(N2C[C@H]3CC[C@@H](C2)N3)c2cc(F)c(-c3cn(C)c4ccccc34)c(F)c2n1 [P-0801] , IC50 observed: 100 to 1000 µM

Field IC50 (entry COc1cccc2ncnc(-c3ccc4c(N5C[C@H]6CC[C@@H](C5)N6)nc(OC[C@@H]5CCCN5C)nc4c3F)c12 [P-0727] ) reads 100 to 1000 µM

For reference, reported IC50 for O=C(NC1CNC1)N1[C@@H]2CC[C@H]1CN(c1nc(OCC34CCCN3CCC4)nc3cc(-c4cc(O)cc5ccccc45)ccc13)C2 [P-0125] stands at 0.0001 to 10 µM

Short answer for CN1CC[C@H](NC(=O)N2[C@@H]3CC[C@H]2CN(c2nc(OCC45CCCN4CCC5)nc4cc(-c5cc(O)cc6ccccc56)ccc24)C3)C1 [P-0132] : IC50 was 0.0001 to 10 µM

Lab note: measured IC50 of Oc1cc(-c2ccc3c(N4C[C@H]5CC[C@@H](C4)N5)nc(OCC45CCCN4CCC5)nc3c2)c2ccccc2c1 [P-0002] was 0.0001 to 10 µM

###

- target_or_test_system: G12D-mutant human KRAS (amino acid residues 1-188) (Homo sapiens, UniProt P01116, G12D)
- Construct: G12D or G12C-mutant human KRAS (amino acid residues 1-188) with FLAG tag; made in house; host or cells: E. coli
- method_summary: KRAS Binding Disruption Assay (AlphaScreen; biotinylated KRpep-2d analogue or RAF1-RBD), G12D
- condition_description: KRAS G12D; geometric mean; read-out: KRAS GMean IC50 (uM) MUTATION: G12D
Entries and their IC50 values follow.

Example entries and their recorded answers appear below.
CN1CCC[C@H]1COc1nc(N2[C@@H]3CC[C@H]2CN(C(=O)CC2CCCNC2)C3)c2ccc(-c3cc(O)cc4ccccc34)cc2n1 (stereo partly drawn) [P-0190] :: 10 to 100 µM
C=CC(=O)N1[C@@H]2CC[C@H]1CN(c1nc(OC[C@@]34CCCN3C[C@H](F)C4)nc3c(F)c(-c4cc(O)cc5cccc(Cl)c45)ccc13)C2 [P-0502] :: 0.0001 to 10 µM

For the next question, use this compound.
Form field IC50, entry CN1CCC[C@H]1COc1nc(N2C[C@H]3CC[C@@H](C2)N3)c2ccc(-c3ccccc3)cc2n1 [P-0151] : 100 to 1000 µM

###

- target_or_test_system: G12D-mutant human KRAS (amino acid residues 1-188) (Homo sapiens, UniProt P01116, G12D)
- Construct: G12D or G12C-mutant human KRAS (amino acid residues 1-188) with FLAG tag; made in house; host or cells: E. coli
- method_summary: KRAS Binding Disruption Assay (AlphaScreen; biotinylated KRpep-2d analogue or RAF1-RBD), G12D
- condition_description: KRAS G12D; geometric mean; read-out: KRAS GMean IC50 (uM) MUTATION: G12D
readout: IC50

CC(=O)OCC(=O)N1[C@@H]2CC[C@H]1CN(c1nc(OCC34CCCN3CCC4)nc3cc(-c4cc(O)cc5ccccc45)ccc13)C2 :: 0.0001 to 10 µM
CNC(=O)CN1[C@@H]2CC[C@H]1CN(c1nc(OCC34CCCN3CCC4)nc3c(F)c(-c4cc(O)cc5ccccc45)ccc13)C2 :: 0.0001 to 10 µM

Looking up CC(CO)(COc1nc(N2C[C@H]3CC[C@@H](C2)N3)c2ccc(-c3cc(O)cc4ccccc34)c(F)c2n1)c1ccccc1 (stereo partly drawn) , I found its IC50 recorded as 0.0001 to 10 µM

###

- target_or_test_system: G12D-mutant human KRAS (amino acid residues 1-188) (Homo sapiens, UniProt P01116, G12D)
- Construct: G12D or G12C-mutant human KRAS (amino acid residues 1-188) with FLAG tag; made in house; host or cells: E. coli
- method_summary: KRAS Binding Disruption Assay (AlphaScreen; biotinylated KRpep-2d analogue or RAF1-RBD), G12D
- condition_description: KRAS G12D; geometric mean; read-out: KRAS GMean IC50 (uM) MUTATION: G12D
Recorded measurements of IC50, one per entry

Answered examples (5):
O=C(N[C@H]1CCNC1)N1[C@@H]2CC[C@H]1CN(c1nc(OCC34CCCN3CCC4)nc3cc(-c4cc(O)cc5ccccc45)ccc13)C2 :: 0.0001 to 10 µM
CN1CCC[C@H]1COc1nc(N2C[C@H]3CC[C@@H](C2)N3)c2ccc(-c3nccc4ccc(F)cc34)c(F)c2n1 :: 10 to 100 µM
CN1CCC[C@H]1COc1nc(N2C[C@H]3CC[C@@H](C2)N3)c2cc(F)c(-c3c[nH]c4ccc(Cl)cc34)c(F)c2n1 :: 0.0001 to 10 µM
Oc1cc(-c2ccc3c(N4C[C@H]5CC[C@@H](C4)N5)nc(OCCN4CCC(F)(F)C4)nc3c2F)c2ccccc2c1 :: 0.0001 to 10 µM
CN1CCC[C@H]1COc1nc(N2[C@@H]3CC[C@H]2CN(c2cnccn2)C3)c2ccc(-c3cc(O)cc4ccccc34)cc2n1 :: 10 to 100 µM

Oc1cc(-c2ccc3c(N4C[C@H]5CC[C@@H](C4)N5)nc(NCC45CCCN4CCC5)nc3c2F)c2ccccc2c1 yielded IC50 of 0.0001 to 10 µM

get_value(item= NC1(CO)CN(c2nc(N3C[C@H]4CC[C@@H](C3)N4)c3ccc(-c4cc(O)cc5ccccc45)c(F)c3n2)C1 , readout=IC50) returns 0.0001 to 10 µM

###

Listed here: items and their measured IC50.
- target_or_test_system: G12V-mutant human KRAS (amino acid residues 1-188) (Homo sapiens, UniProt P01116, G12V)
- Construct: G12V-mutant human KRAS (amino acid residues 1-188) with FLAG tag was purified from E. coli; made in house; host or cells: E. coli
- method_summary: KRAS Binding Competition Assay (AlphaScreen; biotinylated KRpep-2d analogue), G12V
- condition_description: geometric mean, read-out: KRAS GMean IC50 (uM) MUTATION: G12V

Oc1cc(-c2ccc3c(N4C[C@H]5CC[C@@H](C4)N5)nc(OCC45CCCN4CCC5)nc3c2F)c2ccccc2c1 :: 0.0001 to 10 µM

IC50 reading for CN1CCC[C@H]1COc1nc(N2[C@@H]3CC[C@H]2CNC3)c2ccc(-c3cc(O)cc4ccccc34)cc2n1 : 10 to 100 µM

CN1CCC[C@H]1COc1nc(N2C[C@H]3CC[C@@H](C2)N3)c2ccc(-c3csc4ccccc34)cc2n1 has a reported IC50 of 10 to 100 µM

Field IC50 (entry CN1CCC[C@H]1COc1nc(N2C[C@H]3CC[C@@H](C2)N3C(=O)CCC#N)c2ccc(-c3cc(O)cc4ccccc34)cc2n1 ) reads 0.0001 to 10 µM
